biological target: Kelch-like ECH-associated protein 1 (KEAP1) (Homo sapiens, UniProt Q14145)
Sequence (Q14145 whole entry): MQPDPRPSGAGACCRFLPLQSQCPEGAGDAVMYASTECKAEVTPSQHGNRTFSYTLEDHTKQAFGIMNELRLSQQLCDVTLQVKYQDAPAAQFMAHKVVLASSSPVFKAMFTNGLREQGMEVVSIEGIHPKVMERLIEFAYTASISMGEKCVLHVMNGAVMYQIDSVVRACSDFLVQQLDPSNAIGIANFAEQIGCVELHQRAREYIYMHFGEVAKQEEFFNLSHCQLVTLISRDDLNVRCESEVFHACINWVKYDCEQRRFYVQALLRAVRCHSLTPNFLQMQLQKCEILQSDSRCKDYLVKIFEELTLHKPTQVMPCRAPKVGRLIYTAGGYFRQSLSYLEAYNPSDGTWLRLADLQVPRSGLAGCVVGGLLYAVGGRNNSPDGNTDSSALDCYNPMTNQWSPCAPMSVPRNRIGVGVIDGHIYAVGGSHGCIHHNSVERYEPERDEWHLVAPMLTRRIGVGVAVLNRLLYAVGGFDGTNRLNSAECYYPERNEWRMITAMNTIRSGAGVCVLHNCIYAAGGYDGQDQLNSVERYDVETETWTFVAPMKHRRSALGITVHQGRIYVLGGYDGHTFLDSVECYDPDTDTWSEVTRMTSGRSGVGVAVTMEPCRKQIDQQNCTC
parameter measured: EC50 (nM)
Answer with a number only, understood to be in nM.

Incoming: Field request: EC50 | item: `Cc1cc(C)c(C#N)c(S(C)(=O)=O)n1`
Outgoing: 1100

These entries and their values trace back to paper PMC7365253.
